Protocol notes: Pharmacokinetic study in mice
Format: in vivo, CD-1 mice
Protocol conditions: female, mouse; Liver; CD-1; IP 35 mg/kg; read-out: Tmax
Experimental: Female CD-1 and nude mice were administered 35 mg/kg body weight of KCN1 as either a single intravenous injection via a tail vein or via an intraperitoneal injection. […] The collection containers and cages were washed twice with 0.9% saline solution, and each urine collection and each wash was analyzed separately, then values were added together for each mouse to determine the total KCN1 present in urine during the collection period. […]
Measurement kind: Tmax (h)
Only the number, expressed in h, is required.

query: Determine from records and report Tmax for COc1ccc(S(=O)(=O)N(Cc2ccc3c(c2)C=CC(C)(C)O3)c2ccccc2)cc1OC [KCN1]
result: 4

###

Protocol notes: Pharmacokinetic study in mice
Assay type: in vivo, nude mice (nu/nu)
Protocol conditions: female, nude (nu/nu), mouse; Liver; Nu/nu; IP 35 mg/kg; read-out: Tmax
Measurement kind: Tmax (min)
Only the number, expressed in min, is required.

query: Determine from records and report Tmax for COc1ccc(S(=O)(=O)N(Cc2ccc3c(c2)C=CC(C)(C)O3)c2ccccc2)cc1OC [KCN1]
result: 30

###

Protocol notes: Pharmacokinetic study in mice
Assay type: in vivo, nude mice (nu/nu)
Protocol conditions: female, nude (nu/nu), mouse; Brain; Nu/nu; IV 35 mg/kg
Measurement kind: half-life (h)
Only the number, expressed in h, is required.

query: Determine from records and report half-life for `COc1ccc(S(=O)(=O)N(Cc2ccc3c(c2)C=CC(C)(C)O3)c2ccccc2)cc1OC`
result: 3.38

###

Protocol notes: Pharmacokinetic study in mice
Type: in vivo, CD-1 mice
Protocol conditions: female, mouse; Spleen; CD-1; IV 35 mg/kg; read-out: Tmax
Measurement kind: Tmax (min)
Only the number, expressed in min, is required.

query: Determine from records and report Tmax for `COc1ccc(S(=O)(=O)N(Cc2ccc3c(c2)C=CC(C)(C)O3)c2ccccc2)cc1OC`
result: 4.8

###

Protocol notes: Pharmacokinetic study in mice
Assay type: in vivo, nude mice (nu/nu)
Protocol conditions: female, nude (nu/nu), mouse; Heart; Nu/nu; IP 35 mg/kg; read-out: Tmax
Measurement kind: Tmax (min)
Only the number, expressed in min, is required.

query: Determine from records and report Tmax for `COc1ccc(S(=O)(=O)N(Cc2ccc3c(c2)C=CC(C)(C)O3)c2ccccc2)cc1OC`
result: 4.8

###

Test system: Panc-1 cells
Protocol notes: MTT cell survival assay
Format: cell-based
Protocol conditions: Homo sapiens; Panc-1, 72 h, MTT; read-out: Cytotoxicity: IC50
Measurement kind: IC50 (µM)
Only the number, expressed in µM, is required.

query: Determine from records and report IC50 for COc1ccc(S(=O)(=O)N(Cc2ccc3c(c2)C=CC(C)(C)O3)c2ccccc2)cc1OC [KCN1]
result: 100

###

Protocol notes: Pharmacokinetic study in mice
Assay type: in vivo, CD-1 mice
Protocol conditions: female, mouse, plasma, ip; CD-1 mice, I.P. 35 mg/kg; read-out: time of maximum plasma level (converted)
Measurement kind: Tmax (min)
Only the number, expressed in min, is required.

query: Determine from records and report Tmax for COc1ccc(S(=O)(=O)N(Cc2ccc3c(c2)C=CC(C)(C)O3)c2ccccc2)cc1OC [KCN1]
result: 30

###

Protocol notes: Pharmacokinetic study in mice
Assay type: in vivo, CD-1 mice
Protocol conditions: female, mouse; Brain; CD-1; IV 35 mg/kg
Procedure: Female CD-1 and nude mice were administered 35 mg/kg body weight of KCN1 as either a single intravenous injection via a tail vein or via an intraperitoneal injection. […] The collection containers and cages were washed twice with 0.9% saline solution, and each urine collection and each wash was analyzed separately, then values were added together for each mouse to determine the total KCN1 present in urine during the collection period. […]
Measurement kind: half-life (min)
Only the number, expressed in min, is required.

query: Determine from records and report half-life for COc1ccc(S(=O)(=O)N(Cc2ccc3c(c2)C=CC(C)(C)O3)c2ccccc2)cc1OC [KCN1]
result: 31.8

src = paper PMC3441526
